assay_system: full-length recombinant mouse PAD4 (mouse) (UniProt Q9Z183)
Sequence (Q9Z183 whole entry): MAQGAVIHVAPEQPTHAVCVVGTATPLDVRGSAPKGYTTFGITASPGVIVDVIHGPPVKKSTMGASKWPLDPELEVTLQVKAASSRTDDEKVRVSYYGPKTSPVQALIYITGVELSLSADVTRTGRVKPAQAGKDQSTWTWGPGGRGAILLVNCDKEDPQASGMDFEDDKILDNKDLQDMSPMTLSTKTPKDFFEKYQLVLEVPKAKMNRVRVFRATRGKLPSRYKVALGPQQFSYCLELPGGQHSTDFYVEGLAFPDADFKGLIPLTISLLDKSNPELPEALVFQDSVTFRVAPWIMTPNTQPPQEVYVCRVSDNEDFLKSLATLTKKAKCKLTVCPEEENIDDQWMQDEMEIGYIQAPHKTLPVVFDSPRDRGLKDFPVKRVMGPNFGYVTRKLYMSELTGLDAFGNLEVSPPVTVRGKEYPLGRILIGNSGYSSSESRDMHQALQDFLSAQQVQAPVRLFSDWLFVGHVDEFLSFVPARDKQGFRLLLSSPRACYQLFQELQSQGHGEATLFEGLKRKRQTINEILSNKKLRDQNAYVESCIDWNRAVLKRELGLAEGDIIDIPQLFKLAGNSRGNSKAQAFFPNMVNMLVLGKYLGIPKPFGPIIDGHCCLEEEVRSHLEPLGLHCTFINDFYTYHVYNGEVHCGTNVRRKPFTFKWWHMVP
measurement_description: ELISA, mouse PAD4 on plate, antibody 0.0625 ug/mL
test_readout: absorbance 490 nm/630 nm (OD)
Numbers only, in OD.

Worked cases, absorbance 490 nm/630 nm given:
INSERT INTO measurements (binder, test_readout, reported_measurement) VALUES
  ('H7 (antibody, IgG1, V domains shown) VH: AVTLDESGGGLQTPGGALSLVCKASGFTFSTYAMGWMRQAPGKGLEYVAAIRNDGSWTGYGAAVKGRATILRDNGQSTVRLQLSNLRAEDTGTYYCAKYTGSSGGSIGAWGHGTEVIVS VL: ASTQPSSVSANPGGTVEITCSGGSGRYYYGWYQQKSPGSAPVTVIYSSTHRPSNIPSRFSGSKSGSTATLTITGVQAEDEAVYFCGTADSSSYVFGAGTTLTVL', 'absorbance 490 nm/630 nm', 2.29),
  ('G9 (antibody, IgG1, V domains shown) VH: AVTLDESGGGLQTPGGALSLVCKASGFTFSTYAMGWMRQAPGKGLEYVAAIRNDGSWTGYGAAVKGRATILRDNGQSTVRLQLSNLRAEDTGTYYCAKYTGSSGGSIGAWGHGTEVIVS VL: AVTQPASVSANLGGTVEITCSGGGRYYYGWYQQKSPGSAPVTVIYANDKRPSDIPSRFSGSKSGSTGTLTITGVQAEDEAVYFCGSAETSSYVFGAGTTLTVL', 'absorbance 490 nm/630 nm', 2.24);

Task item: For the binder G8 (antibody, IgG1, V domains shown) VH: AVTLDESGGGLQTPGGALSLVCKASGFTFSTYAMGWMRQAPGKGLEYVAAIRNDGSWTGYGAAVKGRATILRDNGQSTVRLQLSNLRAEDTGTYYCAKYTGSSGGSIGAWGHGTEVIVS VL: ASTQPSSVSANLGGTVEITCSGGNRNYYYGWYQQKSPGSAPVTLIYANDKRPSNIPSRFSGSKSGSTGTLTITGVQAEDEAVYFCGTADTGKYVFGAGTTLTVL , what absorbance 490 nm/630 nm is on record?
Reply: 2.22
